Can you tell me GI50 for the items I'm about to list?
# Test system: UACC-62
# experimentNotes: NCI tumour cell line growth inhibition, 48 h
The source made the active and inactive calls. No stated cut-off is given here; in the data, active = GI50 up to about 1.1 µM and inactive = higher.

Record O=S1(=O)CCN(Cc2ccccn2)CC1 . Reported GI50: > 100 µM (inactive)

Record NC1=Nc2ccccc2Sc2nnc(-c3ccc(Cl)cc3)n21 . Reported GI50: 61.4 µM (inactive)

Record C[N+](C)(C)CC1CCCC/C1=N\O (stereo not given) . Reported GI50: > 100 µM (inactive)

Record O=C1C=C(Nc2ccc(Cl)cc2Cl)c2ccccc2C1=O . Reported GI50: 16.5 µM (inactive)

Record Cc1c(Cl)ccc2c1NC(=O)C2(O)C(C(=O)c1ccccc1)c1ccccc1 (stereo not given) . Reported GI50: 19.5 µM (inactive)

Record CC1NCCC(CC(=O)O)C1CC(=O)O (stereo not given) . Reported GI50: > 100 µM (inactive)

Record C=CCc1ccc(Oc2cc(CC=C)c3c(c2O)O[C@@H](CO)[C@H]3c2ccc(O)c(-c3cc(CC=C)ccc3O)c2)cc1 . Reported GI50: 30.1 µM (inactive)

Record NC(=O)CCC(NC(=O)C(F)(F)F)C(=O)O (stereo not given) . Reported GI50: > 100 µM (inactive)

Record C[Si]1(C)C(c2ccccc2)=CC2C(c3ccccc3)(c3ccccc3)OC21c1ccccc1 (stereo not given) . Reported GI50: > 100 µM (inactive)

Record Cc1ccc(C(N)=O)cc1/N=N/N(C)C . Reported GI50: > 100 µM (inactive)

* * *

# Test system: SN12C
# experimentNotes: NCI tumour cell line growth inhibition, 48 h
Calls of active or inactive are those of the source. Rule as the data show it: active = GI50 up to about 1.1 µM and inactive = higher.
testReadout: GI50

Record CC1=C(C)C2(C#N)C(=O)N3C(=NC(c4ccccc4)NC3c3ccccc3)C2(C#N)C(c2ccccc2)N1 (centres undefined) . Reported GI50: > 100 µM (inactive)

Record COc1c(C)c(C/C=C(\C)CCCCO)c(OC)c(OC)c1OC . Reported GI50: 28.7 µM (inactive)

Record Nc1nc(Cl)cc(NCC2(CO)CC(Cc3ccccc3)C2)n1 (centres undefined) . Reported GI50: > 92.3 µM (inactive)

Record O=c1[nH]nc(Cc2ccc(Cl)cc2)n1/N=C\c1ccc(/C=N/n2c(Cc3ccc(Cl)cc3)n[nH]c2=O)cc1 . Reported GI50: 57.3 µM (inactive)

Record COC(=O)c1ccccc1C1CN=NC12Cc1ccc3ccccc3c1C2=O (centres undefined) . Reported GI50: > 100 µM (inactive)

Record CCCSc1ccc2[nH]c(N3C(=O)/C(=C/c4cc(OC)c(OC)c(OC)c4)N=C3c3ccccc3)cc2c1 . Reported GI50: 16.4 µM (inactive)

Record CC(=O)Nc1ccc(S(=O)(=O)N/N=C(\C)CN2C(=O)c3ccccc3C2=O)cc1 . Reported GI50: 55.2 µM (inactive)

Record CC1CC(=O)C(CC(=O)O)[C@H]1C(C(=O)C(=O)Nc1cc(Cl)ccc1Cl)[N+](=O)[O-] (some centres undefined) . Reported GI50: > 100 µM (inactive)

Record COc1cc(C2S/C(=C/c3ccccc3)C(=O)N2Cc2ccccc2)cc(OC)c1OC (centres undefined) . Reported GI50: 39.2 µM (inactive)

* * *

Can you tell me GI50 for the items I'm about to list?
# Test system: SNB-19
# experimentNotes: NCI tumour cell line growth inhibition, 48 h
Active and inactive are the calls of the source. Rule as the data show it: active = GI50 up to about 1.1 µM and inactive = higher.

Record O=C1CN(c2ccc(Cl)cc2)C(=O)CN1NCNN1CC(=O)N(c2ccc(Cl)cc2)CC1=O . Reported GI50: > 100 µM (inactive)

Record N#CCCN(c1ccc(/C=N/c2ccc(C(=O)O)cc2)cc1)S(=O)(=O)c1ccccc1 . Reported GI50: > 100 µM (inactive)

Record CNc1nc(SC)nc2c1c(N)nn2C . Reported GI50: > 100 µM (inactive)

Record Cc1cccc2c1CC(C1OC(=O)c3ccccc31)C2=O (stereo unspecified) . Reported GI50: > 100 µM (inactive)

Record COP(=O)(OC)C(C)(C)NC(=O)NC(F)(F)F . Reported GI50: 70.1 µM (inactive)

Record COC(=O)CC(NC(=O)OCc1ccccc1)C(C(=O)OCc1ccccc1)C(C)(OC)OC (stereo unspecified) . Reported GI50: 38.2 µM (inactive)

Record Cc1ccc(C(N)=O)cc1/N=N/N(C)C . Reported GI50: > 100 µM (inactive)

Record COC(=O)C1=CCON(c2ccccc2)C1c1ccccc1 (stereo unspecified) . Reported GI50: 62.8 µM (inactive)

Record CCCCCCCCCCCCCC(=O)O.O=CC(O)C(O)C(OC1OC(CO)C(O)C(O)C1O)C(O)CO (stereo unspecified) . Reported GI50: > 100 µM (inactive)

Record O=C1C=C(Nc2ccc(Cl)cc2Cl)c2ccccc2C1=O . Reported GI50: 39.3 µM (inactive)

Record CCCCCCCC/C=C/CCCCCCCC1CC(O)C(=O)O1 (stereo unspecified) . Reported GI50: 65.2 µM (inactive)

* * *

Can you tell me GI50 for the items I'm about to list?
# Test system: SF-295
# experimentNotes: NCI tumour cell line growth inhibition, 48 h
Calls of active or inactive are those of the source. No stated cut-off is given here; in the data, active = GI50 up to about 1.1 µM and inactive = higher.

Record O=Cc1[nH]c(=O)[nH]c(=O)c1C(=O)O . Reported GI50: > 100 µM (inactive)

Record O=C1CC2(CCNCC2)C(=O)N1N1CCCC1 . Reported GI50: > 100 µM (inactive)

Record COc1cc2c(c(O)c1C)C(=O)CC(c1ccccc1)O2 (stereo unspecified) . Reported GI50: > 10 µM (inactive)

Record C=C1C(=O)C=C[C@]2(C)CC[C@H]3C(=C)C(=O)O[C@@H]3[C@@H]12 . Reported GI50: 15.1 µM (inactive)

Record COP(=O)(OC)C(N)CCSC (stereo unspecified) . Reported GI50: > 100 µM (inactive)

Record Cc1c(Cl)ccc2c1NC(=O)C2(O)C(C(=O)c1ccccc1)c1ccccc1 (stereo unspecified) . Reported GI50: 36.5 µM (inactive)

* * *

# Tested on: 786-0
# experimentNotes: NCI tumour cell line growth inhibition, 48 h
The source made the active and inactive calls. No stated cut-off is given here; in the data, active = GI50 up to about 1.1 µM and inactive = higher.
testReadout: GI50

Record CC(=O)OCC12CN(C#N)C3C4COC(CC41)C1(C(=O)N(C)c4ccccc41)C32 (centres undefined) . Reported GI50: 28.3 µM (inactive)

Record O=C(CN1CCCCC1)CC(O)(C(F)(F)F)C(F)(F)F . Reported GI50: > 100 µM (inactive)

Record Cc1csc2[n+]1C(=O)/C(=C\c1ccc([N+](=O)[O-])cc1)S2 . Reported GI50: 24.2 µM (inactive)

Record CC(C)C1=CC23CCC4C(C)(C(=O)O)CCCC4(C)C2CC1C1C(=O)N(c2ccc(N4C(=O)C5C6CC7C8(C)CCCC(C)(C(=O)O)C8CCC7(C=C6C(C)C)C5C4=O)cc2)C(=O)C13 (centres undefined) . Reported GI50: 13.1 µM (inactive)

* * *

# Tested on: UO-31
# experimentNotes: NCI tumour cell line growth inhibition, 48 h
The source made the active and inactive calls. Rule as the data show it: active = GI50 up to about 1.1 µM and inactive = higher.
Valid outcomes are listed here; reply with one: TRUE (active), FALSE (inactive)

Field: outcome | Entry: CC1NCCC(CC(=O)O)C1CC(=O)O (stereo not given)
FALSE

Field: outcome | Entry: NC(=S)N/N=C/c1nccc2ccccc12
TRUE

Field: outcome | Entry: CN1CC[C@@H](c2c(O)cc(O)c3c(=O)cc(-c4ccccc4Cl)oc23)[C@@H](O)C1
TRUE

Field: outcome | Entry: COc1cc2c3c(n(C)c(=O)c2cc1OC)-c1cc2c(cc1/C3=C/CCCCBr)OCO2
FALSE

Field: outcome | Entry: CCOC(=O)c1c(N2CCN(C)CC2)[nH]c(=O)c(C(c2c(Cl)cccc2Cl)c2c(O)c(C(=O)OCC)c(N3CCN(C)CC3)[nH]c2=O)c1O
FALSE

Field: outcome | Entry: CN1CCCN2CCN(C)CCCN(CC1)CC2
FALSE

Field: outcome | Entry: CC(C)(C)OC(=O)NC(Cc1ccc(OCc2ccccc2)cn1)C(=O)N1CCCCC1 (stereo not given)
FALSE

Field: outcome | Entry: COc1cc(C(C#N)NNC(=O)Cc2ccccc2)cc(OC)c1OC (stereo not given)
FALSE

Field: outcome | Entry: O=C(O)CCCc1cc2c(s1)-c1cccc3cccc-2c13
FALSE

Field: outcome | Entry: O=c1[nH]nc(Cc2ccc(Cl)cc2)n1/N=C\c1ccc(/C=N/n2c(Cc3ccc(Cl)cc3)n[nH]c2=O)cc1
FALSE

Field: outcome | Entry: C[N+](C)(C)C1=NNC2=Nc3ccccc3SC2=C1
FALSE

Field: outcome | Entry: C=C1C(=O)C=C[C@]2(C)CC[C@H]3C(=C)C(=O)O[C@@H]3[C@@H]12
FALSE

Field: outcome | Entry: O=c1[nH]nc(-c2ccccc2)n1-c1cccc([N+](=O)[O-])c1
FALSE

Field: outcome | Entry: Fc1ccccc1-c1nn2c(C34CC5CC(CC(C5)C3)C4)nnc2s1
FALSE

Field: outcome | Entry: CC(=O)Nc1ccc(S(=O)(=O)N/N=C(\C)CN2C(=O)c3ccccc3C2=O)cc1
FALSE

Field: outcome | Entry: CN/C(=N\N=C1/C(=O)Nc2ccccc21)SCC(=O)c1ccc(Br)cc1
TRUE

Field: outcome | Entry: O=[N+]([O-])c1ccc(Sc2c3ccccc3nc3ccccc23)nc1
FALSE

Field: outcome | Entry: O=C1c2ccccc2C(=O)N1[C@@H](Cc1ccccc1)C(=O)n1cccc1CO
FALSE

Field: outcome | Entry: O=C(O)/C(=C/C(=O)c1ccc(Cl)cc1)NNc1ccc([N+](=O)[O-])cc1[N+](=O)[O-]
FALSE

Field: outcome | Entry: CCCSc1ccc2[nH]c(N3C(=O)/C(=C/c4cc(OC)c(OC)c(OC)c4)N=C3c3ccccc3)cc2c1
FALSE

The values you see were collected from ChEMBL document CHEMBL1201862.
